test name: in vitro
Assay type: cell-based
settings: mouse, peritoneal macrophages stimulated with LPS, Viability of Macrophages (%, vs. Initiation of culture)
reported endpoint: viability at 24 h, 0.1 µM (%)

1) CCCCCCCC(=O)N1CCC[C@H]1C(=O)N[C@H]1CSSC[C@@H](C(=O)N[C@@H](CCCCN)C(=O)O)NC(=O)[C@H](CO)NC(=O)[C@H]([C@@H](C)O)NC(=O)[C@H](Cc2ccccc2)NC(=O)[C@H]([C@@H](C)O)NC(=O)[C@H](CCCCN)NC(=O)[C@@H](Cc2c[nH]c3ccccc23)NC(=O)[C@H](Cc2ccccc2)NC(=O)[C@H](Cc2c(C)cc(C)cc2C)NC(=O)[C@H](CC(N)=O)NC(=O)[C@H](CCCCN)NC1=O 93.2
